Target: T1, recombinant cyno ENTPD2 extracellular domain (residues 29-462) with C-terminal Avi-His6 tag (cynomolgus macaque, UniProt Q9Y5L3 29-462 (human entry))
T1 construct: also called cynomologus (cyno) ENTPD2 ECD
T1 chain (part 1 of 2): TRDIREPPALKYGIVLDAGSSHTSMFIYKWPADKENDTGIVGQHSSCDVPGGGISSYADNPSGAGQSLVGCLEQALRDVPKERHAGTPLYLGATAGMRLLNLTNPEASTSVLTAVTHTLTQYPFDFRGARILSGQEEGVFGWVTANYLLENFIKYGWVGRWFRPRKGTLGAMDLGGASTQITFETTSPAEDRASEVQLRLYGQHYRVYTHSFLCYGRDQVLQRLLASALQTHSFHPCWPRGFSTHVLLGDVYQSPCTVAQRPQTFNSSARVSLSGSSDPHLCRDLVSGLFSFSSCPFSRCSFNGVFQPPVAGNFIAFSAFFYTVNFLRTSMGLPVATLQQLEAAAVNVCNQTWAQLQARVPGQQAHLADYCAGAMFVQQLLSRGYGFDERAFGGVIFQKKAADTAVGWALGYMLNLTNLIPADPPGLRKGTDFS
T1 chain (part 2 of 2): HHHHHH
Test: SPR Biacore, mAb captured, ECD analyte, 25C
measured_parameter: kon (M⁻¹ s⁻¹)
Number only, in M⁻¹ s⁻¹; omit the unit.

# annotated cases, reported kon shown
ANTI-HUMAN ENTPD2 MAB8 (antibody, human IgG1, lambda, V domains shown, also called Anti-ENTPD2 mAb8) VH: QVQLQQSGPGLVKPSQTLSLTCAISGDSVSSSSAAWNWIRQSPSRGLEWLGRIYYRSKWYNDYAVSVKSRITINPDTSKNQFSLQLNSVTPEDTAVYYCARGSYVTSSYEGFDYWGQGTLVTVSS VL: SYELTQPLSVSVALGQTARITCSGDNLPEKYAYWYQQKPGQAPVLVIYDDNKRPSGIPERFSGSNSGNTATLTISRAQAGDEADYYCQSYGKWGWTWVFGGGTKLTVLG | 300000
ANTI-HUMAN ENTPD2 MAB6 (antibody, human IgG1, kappa, V domains shown, humanized and optimized from mAb16; human IgG1, kappa; also called Anti-ENTPD2 mAb6) VH: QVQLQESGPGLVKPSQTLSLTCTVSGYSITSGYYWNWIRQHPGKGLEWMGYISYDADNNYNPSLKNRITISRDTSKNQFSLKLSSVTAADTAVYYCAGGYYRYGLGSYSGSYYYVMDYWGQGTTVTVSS VL: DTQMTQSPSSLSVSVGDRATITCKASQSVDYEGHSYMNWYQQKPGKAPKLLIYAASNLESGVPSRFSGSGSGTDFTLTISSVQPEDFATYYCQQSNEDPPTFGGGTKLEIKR | 290000
ANTI-HUMAN ENTPD2 MAB10 (antibody, human IgG1, lambda, V domains shown, also called Anti-ENTPD2 mAb10) VH: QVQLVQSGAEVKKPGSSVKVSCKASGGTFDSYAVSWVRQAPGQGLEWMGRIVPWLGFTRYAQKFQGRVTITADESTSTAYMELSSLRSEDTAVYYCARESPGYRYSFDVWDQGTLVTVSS VL: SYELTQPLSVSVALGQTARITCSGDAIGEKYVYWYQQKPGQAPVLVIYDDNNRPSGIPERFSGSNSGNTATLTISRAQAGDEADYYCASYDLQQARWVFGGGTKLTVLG | 1.2e+06

API: the following record is the query input.
Input line: # query: kon of entry ANTI-HUMAN ENTPD2 MAB4 (antibody, human IgG1, kappa, V domains shown, humanized and optimized from mAb16; human IgG1, kappa; also called Anti-ENTPD2 mAb4) VH: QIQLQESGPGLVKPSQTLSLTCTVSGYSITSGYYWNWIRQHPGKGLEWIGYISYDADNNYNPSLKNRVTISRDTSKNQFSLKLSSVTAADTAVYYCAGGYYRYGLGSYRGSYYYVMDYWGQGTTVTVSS VL: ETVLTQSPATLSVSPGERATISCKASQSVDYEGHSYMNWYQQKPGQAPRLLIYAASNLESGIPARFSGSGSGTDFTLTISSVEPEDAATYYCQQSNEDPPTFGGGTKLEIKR
Output line: 140000
